experimental.system: T1, anchored ILT2 D2-D3-D4 domain protein (human, UniProt Q8NHL6 122-650)
T1 construct: on CHO cells; the entry includes leader remnant, V5 tag, and the ILT2 transmembrane and cytoplasmic parts
T1 sequence (Q8NHL6 other isoform, or with tags, fused parts or gaps limits assumed): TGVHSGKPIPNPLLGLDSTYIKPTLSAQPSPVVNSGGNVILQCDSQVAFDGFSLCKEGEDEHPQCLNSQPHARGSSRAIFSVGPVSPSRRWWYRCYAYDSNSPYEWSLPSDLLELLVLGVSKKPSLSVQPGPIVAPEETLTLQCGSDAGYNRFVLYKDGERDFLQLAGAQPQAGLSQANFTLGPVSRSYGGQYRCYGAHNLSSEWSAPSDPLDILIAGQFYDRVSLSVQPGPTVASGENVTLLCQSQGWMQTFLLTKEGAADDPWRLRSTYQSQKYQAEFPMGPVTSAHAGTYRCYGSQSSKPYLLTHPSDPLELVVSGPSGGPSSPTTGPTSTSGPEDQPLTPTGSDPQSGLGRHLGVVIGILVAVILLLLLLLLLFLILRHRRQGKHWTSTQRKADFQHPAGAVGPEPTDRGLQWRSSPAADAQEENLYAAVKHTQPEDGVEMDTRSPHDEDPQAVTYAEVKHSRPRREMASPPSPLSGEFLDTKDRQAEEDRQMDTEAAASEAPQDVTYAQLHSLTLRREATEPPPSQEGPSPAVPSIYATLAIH
method.summary: flow cytometry, CHO cells with anchored ILT2 domain proteins
observation.type: binding result

12D12 (antibody, human IgG1, V domains shown) VH: QVQLQQPGAELVKPGASVRMSCKASGYTFTSYWVHWVKQRPGQGLEWIGVIDPSDSYTSYNQNFKGKATLTVDTSSKTAYIHLSSLTSEDSAVYFCARGERYDGDYFAMDYWGQGTSVTVSS VL: DIVMTQSPASLSVSVGETVTITCRASENIYSNLAWYQQKQGKSPQLLVYAATNLADGVPSRFSGSRSGTQYSLKINSLQSEDFGTYYCQHFWNTPRTFGGGTKLEIK :: no binding
3H5 (antibody, human IgG1, V domains shown) VH: QVQLKESGPGLVAPSQSLSITCTVSGFSLTSYGVSWVRQPPGKGLEWLGVIWGDGSTNYHSALISRLSISKDNSKSQVFLKLNSLQTDDTATYYCAKPRWDDYAMDYWGQGTSVTVSS VL: DIQMTQTTSSLSASLGDRVTISCRASQDISNYLNWYQQKPDGTVKLLIYYTSRLHSGVPSRFSGSGSGTDYSLTISNLEQEDIATYFCQQGNTLWTFGGGTKLEIK :: no binding
48F12 (antibody, human IgG1, V domains shown) VH: QVQLKESGPGLVAPSQSLSITCTVSGFSLTSYGVSWVRQPPGKGLEWLGIIWGDGSTNYHSALVSRLSISKDNSKSQVFLKLNSLQTDDTATYYCAKPNWDYYAMDYWGQGTSVTVSS VL: DIQMTQTTSSLSASLGDRVTISCRASQDISNYLNWYQQKVDGTVKLLISYTSRLHSGVPSRFSGSGSGTDYSLTISNLEQEDIATYFCQQGITLPLTFGAGTKLELK :: no binding

Just for reference, patent US20220025056A1 is where these values come from.
